B1: glmS ribozyme (parent)
chain: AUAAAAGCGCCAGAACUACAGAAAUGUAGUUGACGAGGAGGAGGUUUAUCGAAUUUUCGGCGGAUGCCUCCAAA

variants of: B1; assay: self-cleavage kobs at 2500 uM GlcN6P; higher = faster cleavage; RNA array; conditions: with glucosamine-6-phosphate
Fewer inactive variants are shown than the library holds.
TEST_READOUT: self-cleavage kobs at 2500 uM GlcN6P (s⁻¹)
// note: answer is a bare numeric in s⁻¹

[Q] self-cleavage kobs at 2500 uM GlcN6P for U55A C68U ?
[A] 0.00477

[Q] self-cleavage kobs at 2500 uM GlcN6P for G32U A39G C71U ?
[A] 0.00038

[Q] self-cleavage kobs at 2500 uM GlcN6P for A15U U54G U65G ?
[A] 0.00039

[Q] self-cleavage kobs at 2500 uM GlcN6P for A6C C50G C61G ?
[A] 0.000289

[Q] self-cleavage kobs at 2500 uM GlcN6P for G13U A14G G37A U45A ?
[A] 0.000193

[Q] self-cleavage kobs at 2500 uM GlcN6P for U30G U55A ?
[A] 0.00295

[Q] self-cleavage kobs at 2500 uM GlcN6P for C16U U55G U69G ?
[A] 5.05e-05

[Q] self-cleavage kobs at 2500 uM GlcN6P for A53U U56A C71U ?
[A] 0.00323

[Q] self-cleavage kobs at 2500 uM GlcN6P for U47C A53U ?
[A] 0.0012

[Q] self-cleavage kobs at 2500 uM GlcN6P for G13C U55A ?
[A] 6.85e-05

[Q] self-cleavage kobs at 2500 uM GlcN6P for G32A C58A C68U ?
[A] 0.000172

[Q] self-cleavage kobs at 2500 uM GlcN6P for C58U U69C ?
[A] 5.56e-05

[Q] self-cleavage kobs at 2500 uM GlcN6P for U30C C68U ?
[A] 9.82e-05

[Q] self-cleavage kobs at 2500 uM GlcN6P for U45G U47G ?
[A] 0.00347

[Q] self-cleavage kobs at 2500 uM GlcN6P for G29C G32U C67A ?
[A] 4.32e-05

[Q] self-cleavage kobs at 2500 uM GlcN6P for A53G C67A ?
[A] 0.000612

[Q] self-cleavage kobs at 2500 uM GlcN6P for A39U A52G ?
[A] 0.000345

[Q] self-cleavage kobs at 2500 uM GlcN6P for G29C U55G C71A ?
[A] 5.43e-05

[Q] self-cleavage kobs at 2500 uM GlcN6P for A39G G43A ?
[A] 0.000109

[Q] self-cleavage kobs at 2500 uM GlcN6P for A15G G32C G37U C70A ?
[A] 0.000633

[Q] self-cleavage kobs at 2500 uM GlcN6P for A12U G41U A48U ?
[A] 7.03e-05

[Q] self-cleavage kobs at 2500 uM GlcN6P for A53C U56G ?
[A] 0.00165

[Q] self-cleavage kobs at 2500 uM GlcN6P for A15U G66C C68A ?
[A] 6.09e-05

[Q] self-cleavage kobs at 2500 uM GlcN6P for U31G U46A ?
[A] 0.000954
